biological target: hGIP-R (Homo sapiens, UniProt P48546); construct: expressed in transfected cells; host or cells: HEK-293 clonal cell lines; assay: Functional hGIP-R Assay (cAMP formation, HTRF); format: cell-based; conditions: cAMP potency; HEK-293 cells expressing hGIP-R; incubated at 37° C. in the presence of 0.1% bovine casein; geometric mean; read-out: Human GIP-R EC50, nM (SEM, n)
Sequence (P48546 22-466): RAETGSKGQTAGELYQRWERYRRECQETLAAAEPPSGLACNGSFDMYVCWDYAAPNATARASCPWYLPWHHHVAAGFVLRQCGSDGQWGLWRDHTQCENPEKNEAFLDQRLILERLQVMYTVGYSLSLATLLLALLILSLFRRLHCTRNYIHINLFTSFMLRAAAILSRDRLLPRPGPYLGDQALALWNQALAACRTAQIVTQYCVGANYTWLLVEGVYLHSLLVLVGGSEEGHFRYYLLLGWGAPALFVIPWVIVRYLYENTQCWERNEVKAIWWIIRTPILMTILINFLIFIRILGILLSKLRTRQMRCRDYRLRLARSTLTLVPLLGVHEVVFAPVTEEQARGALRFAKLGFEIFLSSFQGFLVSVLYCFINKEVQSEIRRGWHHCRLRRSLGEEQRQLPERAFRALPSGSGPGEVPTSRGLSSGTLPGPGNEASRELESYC
Binarize EC50 at 20 nM; below is condition met, at or above is condition not met.

Cn1cc(-c2cc(C(F)(F)F)nn2CC(C)(C)NC(=O)[C@@H](Cc2cnn(C(F)F)c2)N2CC[C@@]3(C[C@@H]3c3ccc(-c4cnc5nc(C(C)(C)O)ccc5c4)cc3)C2=O)ccc1=O (single isomer, unassigned; isomer 1) ... condition not met
Cn1cc(C[C@@H](NC(=O)[C@H]2C[C@@H]2c2ccc(-c3cnc4nn(C)cc4c3)cc2)C(=O)NC(C)(C)Cn2nc(C(F)(F)F)cc2-c2cn[nH]n2)cn1 ... condition not met
Cn1cc(C[C@@H](NC(=O)[C@H]2C[C@@H]2c2ccc(-c3cnc4nn(C)cc4c3)cc2)C(=O)NC(C)(C)Cn2nc(C(F)(F)F)cc2-c2ccn(C3CCOC3)n2)cn1 (mixture of isomers) ... condition not met
Cc1cn2cc(-c3ccc(C4CC45CCN([C@H](Cc4cnn(C(F)F)c4)C(=O)NC(C)(C)Cn4nc(C(F)(F)F)cc4-c4ccc(=O)n(C)c4)C5=O)c(C(F)(F)F)c3)cnc2n1 (single isomer, unassigned; isomer 1) ... condition met
Cn1cc(C[C@@H](NC(=O)[C@H]2C[C@@H]2c2ccc(-c3cnc4nn(C)cc4c3)cc2)C(=O)NC(C)(C)Cn2nc(C(F)(F)F)cc2-c2ccnc(C(C)(C)O)c2)cn1 ... condition met

Regarding Cn1cc(C[C@@H](NC(=O)[C@H]2C[C@@H]2c2ccc(-c3cnc4nn(C)cc4c3)cc2)C(=O)NC(C)(C)Cn2nc(C(F)(F)F)cc2-c2cnn(CC3COC3)c2)cn1 , kindly confirm whether its EC50 is beneath 20 nM.
condition not met

Regarding Cn1cc(C[C@@H](NC(=O)C2CC2c2ccc(-c3cnc4nn(C)cc4c3)s2)C(=O)NC(C)(C)Cn2nc(C(F)(F)F)cc2Br)cn1 (single isomer, unassigned; isomer 2) , kindly confirm whether its EC50 is beneath 20 nM.
condition not met

Regarding [2H]C([2H])([2H])n1cc(C[C@H](C(=O)NC(C)(C)Cn2nc(C(F)(F)F)cc2-c2ccc(C(C)(C)O)nc2)N2CC[C@@]3(C[C@@H]3c3ccc(-c4cnc5nn(CC)cc5c4)nc3C)C2=O)cn1 , kindly confirm whether its EC50 is beneath 20 nM.
condition met
